- System: L1210
- run_description: Antitumor activity against mouse L1210 cells assessed as inhibition of [3H]thymidine incorporation after 72 hrs
- Format: functional, cell-based
pEC50: −log10 of the molar value.
property_measured: pEC50

1) CC(=O)N[C@H]1[C@@H](OCc2ccccc2)O[C@H](CO)[C@@H](O)[C@@H]1O[C@H](C)C(=O)N[C@@H](C(=O)N[C@H](CCC(=O)NCCNc1ncnc2c1ncn2[C@@H]1O[C@H](CO)[C@@H](O)[C@H]1O)C(N)=O)C(C)C = 3.34
2) CC(=O)N[C@H]1[C@@H](OCc2ccccc2)O[C@H](CO)[C@@H](O)[C@@H]1OCC(=O)N[C@@H](C(=O)N[C@H](CCC(=O)NCCNc1ncnc2c1ncn2[C@@H]1O[C@H](CO)[C@@H](O)[C@H]1O)C(N)=O)C(C)C = 3.29
3) CC(=O)N[C@H]1[C@@H](OCc2ccccc2)O[C@H](CO)[C@@H](O)[C@@H]1OCC(=O)N[C@@H](C)C(=O)N[C@H](CCC(=O)NCCCCCC(=O)Nc1ncnc2c1ncn2[C@@H]1O[C@H](CO)[C@@H](O)[C@H]1O)C(N)=O = 3.27
4) CC(=O)N[C@H]1[C@@H](OCc2ccccc2)O[C@H](CO)[C@@H](O)[C@@H]1OCC(=O)N[C@H](CO)C(=O)N[C@H](CCC(=O)NCCNc1ncnc2c1ncn2[C@@H]1O[C@H](CO)[C@@H](O)[C@H]1O)C(N)=O = 3.27
5) CC(=O)N[C@H]1[C@@H](OCc2ccccc2)O[C@H](CO)[C@@H](O)[C@@H]1O[C@H](C)C(=O)N[C@H](C(=O)N[C@H](CCC(=O)NCCNc1ncnc2c1ncn2[C@@H]1O[C@H](CO)[C@@H](O)[C@H]1O)C(N)=O)C(C)C = 3.53
6) CC(=O)N[C@@H]1[C@@H](O[C@H](C)C(=O)N[C@H](C)C(=O)N[C@H](CCC(=O)O)C(N)=O)[C@H](O)[C@@H](CO)O[C@@H]1O = 2.99
